# System Under Test: Dual specificity protein kinase CLK3 (Mus musculus, UniProt O35492)
# Sequence (O35492 whole entry, the tested form may be a part): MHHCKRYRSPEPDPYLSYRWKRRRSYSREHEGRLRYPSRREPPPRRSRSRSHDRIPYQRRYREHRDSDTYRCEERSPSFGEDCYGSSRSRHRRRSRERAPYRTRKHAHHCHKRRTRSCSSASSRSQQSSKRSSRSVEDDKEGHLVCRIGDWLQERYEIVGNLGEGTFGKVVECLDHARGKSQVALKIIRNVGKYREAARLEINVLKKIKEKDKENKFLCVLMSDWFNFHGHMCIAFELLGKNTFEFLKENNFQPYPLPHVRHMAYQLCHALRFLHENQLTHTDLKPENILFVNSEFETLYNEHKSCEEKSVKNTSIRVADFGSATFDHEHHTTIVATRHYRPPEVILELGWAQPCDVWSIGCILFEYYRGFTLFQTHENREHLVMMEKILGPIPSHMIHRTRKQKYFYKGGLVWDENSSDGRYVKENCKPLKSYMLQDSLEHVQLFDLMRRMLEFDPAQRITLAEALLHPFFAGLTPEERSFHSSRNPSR
# Assay: Inhibition of GST-fused mouse recombinant CLK3 expressed in Escherichia coli using GRSRSRSRSRSR peptide as substrate incubated for 30 mins in presence of ATP by scintillation counting method
Measure: pIC50
// pIC50 is dimensionless: -log10 of concentration (M)

For O=C1NC(Nc2ccccc2)=N/C1=C\c1ccc2c(c1)CCO2 , what is its reported pIC50? 5.92

Cool, now CN1CCN(c2ccc(NC3=N/C(=C\c4ccc5c(c4)OCO5)C(=O)N3)cc2)CC1 6.10

Cool, now CN1C(=O)/C(=C/c2ccc3c(c2)OCO3)N=C1Nc1ccccc1 5.85

Cool, now CCCNC1=N/C(=C\c2ccc3c(c2)OCO3)C(=O)N1C 5.60

Next:
For O=C1NC(Nc2ccc(O)c(F)c2)=N/C1=C\c1ccc2c(c1)OCO2 , what is its reported pIC50? 6.40

Cool, now CCCNC1=N/C(=C\c2ccc3c(c2)OCO3)C(=O)N1 5.52

Cool, now O=C1NC(N2CCCC2)=N/C1=C\c1ccc2c(c1)OCO2 5.49

Cool, now O=C1NC(Nc2ccc(O)cc2)=N/C1=C\c1ccc2c(c1)OCO2 6.55

Cool, now CCSC1=N/C(=C\c2ccc3c(c2)OCO3)C(=O)N1C 5.68

###

# Assay: Neurotoxicity against mouse HT-22 cells assessed as cell survival at 20 uM treated for 24 hrs by MTS assay
# Format: toxicity, cell-based
# Measurement Setup: ht-22, 24 h
Measure: Activity

Example cases with answers are listed next.
For CNC1=N/C(=C\c2ccc3c(c2)OCO3)C(=O)N1 , what is its reported Activity? Non-Toxic

Cool, now CCCCCCc1ccc(NC2=N/C(=C\c3ccc4c(c3)OCO4)C(=O)N2)cc1 Non-Toxic

Cool, now CN1C(=O)/C(=C/c2ccc3c(c2)OCO3)N=C1N Non-Toxic

Cool, now O=C1NC(Nc2ccc(O)c(F)c2)=N/C1=C\c1ccc2c(c1)OCO2 Non-Toxic

Cool, now O=C1NC(Nc2ccc(F)cc2)=N/C1=C\c1ccc2c(c1)OCO2 Non-Toxic

Next:
For O=C1NC(Nc2ccccc2)=N/C1=C\c1ccc(F)cc1 , what is its reported Activity? Non-Toxic

Cool, now CSC1=N/C(=C\c2ccc3c(c2)OCO3)C(=O)N1 Non-Toxic

Cool, now O=C1NC(Nc2ccccc2)=N/C1=C\c1ccc2c(c1)OCO2 Non-Toxic

Cool, now COc1ccc(NC2=N/C(=C\c3ccc4c(c3)OCO4)C(=O)N2)cc1 Non-Toxic

Cool, now O=C1NC(Nc2cccc(F)c2)=N/C1=C\c1ccc2c(c1)OCO2 Non-Toxic

Cool, now CCCNC1=N/C(=C\c2ccc3c(c2)OCO3)C(=O)N1C Non-Toxic

Cool, now CN1C(=O)/C(=C/c2ccc3c(c2)OCO3)N=C1Nc1ccccc1 Non-Toxic

Cool, now O=C1NC(Nc2ccc(-c3ccccc3)cc2)=N/C1=C\c1ccc2c(c1)OCO2 Non-Toxic

Cool, now O=C1NC(Nc2ccccc2)=N/C1=C\c1ccc2c(c1)OCCO2 Non-Toxic

Cool, now CCSC1=N/C(=C\c2ccc3c(c2)OCO3)C(=O)N1C Non-Toxic

Cool, now O=C1NC(NC2CCNCC2)=N/C1=C\c1ccc2c(c1)OCO2 Non-Toxic
